- Tested on: SDMA in HAP1 MTAP-deleted (MTAP-null) cell line (PRMT5 inhibition)
- method-description: SDMA in-cell western assay, HAP1 MTAP-deleted cell line
- test-settings: read-out: Hap1 MTAP deleted IC50; SDMA in-cell western, HAP1 MTAP-deleted cell line
measure-name: IC50

Q: Return IC50 (reported value) for this molecule: Cc1cccnc1CN(C(=O)C(=O)Nc1cnc(N)c2cn[nH]c12)C(C)C(C)C (single isomer, unassigned) [Compound 171]
A: < 5 nM

====

- Test system: SDMA in HAP1 MTAP-deleted (MTAP-null) cell line (PRMT5 inhibition)
- method-description: SDMA in-cell western assay, HAP1 MTAP-deleted cell line
- test-settings: Homo sapiens, HAP1, read-out: Hap1 MTAP deleted IC50
pIC50: −log10 of the molar value.
measure-name: pIC50

In the examples that follow, each entry is paired with its recorded pIC50.
{"columns": ["molecule", "result"],
 "data": [
  ["Cc1cccnc1CN(C(=O)C(=O)Nc1cnc(N)c2cn[nH]c12)C(C)C(C)C (single isomer, unassigned) [Compound 106]", "> 8.30"],
  ["CNc1cccc(CN(Cc2ccccc2)C(=O)C(=O)Nc2cnc(N)c3cn[nH]c23)c1 [Compound 93]", "> 8.30"],
  ["CCc1cc(NC(=O)C(=O)N(Cc2ccc(C(F)(F)F)cn2)[C@@H](COC)C2CC2)cnc1N [Compound 7]", "7.30 to 8.30"]
]}

Q: Return pIC50 (reported value) for this molecule: COC[C@@H](C1CC1)N(Cc1ccc(C(F)(F)F)cn1)C(=O)C(=O)Nc1cnc(N)c(C)c1 [Compound 5]
A: 7.30 to 8.30

Q: Return pIC50 (reported value) for this molecule: CCN(Cc1ccc(C(F)(F)F)cn1)C(=O)C(=O)Nc1cnc(N)c2cn[nH]c12 [Compound 11]
A: 7.30 to 8.30

Q: Return pIC50 (reported value) for this molecule: CCc1cc(NC(=O)C(=O)N(Cc2ccc(C(F)(F)F)cn2)[C@@H]2CCc3ccccc32)cnc1N [Compound 36]
A: 7.30 to 8.30

Q: Return pIC50 (reported value) for this molecule: CC[C@H](C)CN(Cc1ccc(C(F)(F)F)cn1)C(=O)C(=O)Nc1cnc(N)c2cn[nH]c12 [Compound 64]
A: > 8.30

Q: Return pIC50 (reported value) for this molecule: Cc1cc(F)cnc1CN(Cc1ccc(F)cn1)C(=O)C(=O)Nc1cnc(N)c2cn[nH]c12 [Compound 88]
A: > 8.30

====

- System: HAP1 MTAP-deleted cell line
- method-description: Viability assay, HAP1 MTAP-deleted cell line
- Type: cell-based
- test-settings: Homo sapiens; viability assay, HAP1 MTAP-deleted cell line; read-out: Hap1 MTAP deleted viability IC50
measure-name: IC50

In the examples that follow, each entry is paired with its recorded IC50.
{"columns": ["compound", "assay-target", "result"],
 "data": [
  ["Cc1c(CN(Cc2ccccn2)C(=O)C(=O)Nc2cnc(N)c3cn[nH]c23)cccc1N(C)C", "HAP1 MTAP-deleted cell line", "< 0.1 µM"],
  ["CC[C@@H](C)CN(Cc1ccccc1C)C(=O)C(=O)Nc1cnc(N)c2cn[nH]c12", "HAP1 MTAP-deleted cell line", "< 0.1 µM"],
  ["Cc1cc(NC(=O)C(=O)N(Cc2ccc(C(F)(F)F)cn2)[C@@H]2CCC[C@H]2OC(F)F)cnc1N", "HAP1 MTAP-deleted cell line", "0.1 to 1 µM"],
  ["CCc1cc(NC(=O)C(=O)N(Cc2ccc(C(F)(F)F)cn2)[C@@H]2CCc3ccccc32)cnc1N", "HAP1 MTAP-deleted cell line", "< 0.1 µM"],
  ["CN(Cc1ccc(C(F)(F)F)cc1F)C(=O)C(=O)Nc1cnc(N)c2cn[nH]c12", "HAP1 MTAP-deleted cell line", "0.1 to 1 µM"]
]}

Q: // output IC50; input COc1ncc(NC(=O)C(=O)N(Cc2ccc(C(F)(F)F)cn2)C2CCC(C)c3ccccc32)cc1C(N)=O (stereo not shown) ; system HAP1 MTAP-deleted cell line
A: < 0.1 µM

Q: // output IC50; input "C[C@@H](c1ccc(C(F)(F)C(F)(F)F)cc1F)N(C)C(=O)C(=O)Nc1cnc(N)c2cn[nH]c12" ; system HAP1 MTAP-deleted cell line
A: < 0.1 µM

====

- Test system: HAP1 MTAP-deleted cell line
- method-description: Viability assay, HAP1 MTAP-deleted cell line
- Format: cell-based
- test-settings: Homo sapiens; viability assay, HAP1 MTAP-deleted cell line; read-out: Hap1 MTAP deleted viability IC50
pIC50: −log10 of the molar value.
pIC50 values for the compounds below.

In the examples that follow, each entry is paired with its recorded pIC50.
{"columns": ["compound", "result"],
 "data": [
  ["COC[C@@H](C1CC1)N(Cc1ccc(C(F)(F)F)cn1)C(=O)C(=O)Nc1cnc(N)c(C2CC2)c1", "6.00 to 7.00"],
  ["CNc1cccc(CN(Cc2ccccc2)C(=O)C(=O)Nc2cnc(N)c3cn[nH]c23)c1", "> 7.00"],
  ["Cc1ccc(CN(Cc2ccccc2)C(=O)C(=O)Nc2cnc(N)c3cn[nH]c23)c(C)c1", "> 7.00"],
  ["Nc1ncc(NC(=O)C(=O)N(Cc2ccccc2)Cc2ncccn2)c2[nH]ncc12", "> 7.00"],
  ["C[C@H](c1ccc(C(F)(F)C(F)(F)F)cc1)N(C)C(=O)C(=O)Nc1cnc(N)c2cn[nH]c12", "> 7.00"]
]}

Q: Return pIC50 (reported value) for this compound: "Nc1ncc(NC(=O)C(=O)N(Cc2ccccc2)Cc2ccccn2)c2[nH]ncc12"
A: > 7.00

Q: Return pIC50 (reported value) for this compound: "Cc1ccccc1CN(Cc1ccc(C(F)(F)F)cn1)C(=O)C(=O)Nc1cnc(N)c2cn[nH]c12"
A: > 7.00

Q: Return pIC50 (reported value) for this compound: "CC(C)CN(Cc1ccccc1F)C(=O)C(=O)Nc1cnc(N)c2cn[nH]c12"
A: > 7.00

Q: Return pIC50 (reported value) for this compound: "Nc1ncc(NC(=O)C(=O)N(Cc2ccc(C(F)(F)F)cn2)Cc2ccccc2C(F)(F)F)c2[nH]ncc12"
A: > 7.00

Q: Return pIC50 (reported value) for this compound: "Cc1cc(NC(=O)C(=O)N(Cc2ccc(C(F)(F)F)cn2)[C@@H](C)c2ncccn2)cnc1N"
A: 6.00 to 7.00

Q: Return pIC50 (reported value) for this compound: "CC(C)CN(Cc1ccccc1)C(=O)C(=O)Nc1cnc(N)c2cn[nH]c12"
A: > 7.00

Q: Return pIC50 (reported value) for this compound: CC(c1ccc(C(F)(F)F)cn1)N(C)C(=O)C(=O)Nc1cnc(N)c2cn[nH]c12 (racemic)
A: 6.00 to 7.00

Q: Return pIC50 (reported value) for this compound: "CCN(Cc1ccc(S(F)(F)(F)(F)F)cc1)C(=O)C(=O)Nc1cnc(N)c2cn[nH]c12"
A: > 7.00

Q: Return pIC50 (reported value) for this compound: "Cc1cccnc1CN(Cc1ccccn1)C(=O)C(=O)Nc1cnc(N)c2cn[nH]c12"
A: > 7.00

Q: Return pIC50 (reported value) for this compound: "Nc1ncc(NC(=O)C(=O)N(Cc2ccc(C(F)(F)F)cc2)C2CCC2)c2[nH]ncc12"
A: > 7.00

Q: Return pIC50 (reported value) for this compound: "COc1ncc(NC(=O)C(=O)N(Cc2ccc(C(F)(F)F)cn2)[C@@H]2CCc3ccccc32)cc1C(N)=O"
A: > 7.00

====

- Test system: SDMA in HAP1 MTAP-deleted (MTAP-null) cell line (PRMT5 inhibition)
- method-description: SDMA in-cell western assay, HAP1 MTAP-deleted cell line
- test-settings: Homo sapiens, HAP1, read-out: Hap1 MTAP deleted IC50
IC50 values for the molecules below.

{"columns": ["chemical-string", "IC50"],
 "data": [
  ["C[C@H](c1ccc(C(F)(F)C(F)(F)F)cc1)N(C)C(=O)C(=O)Nc1cnc(N)c2c1cnn2C", "< 5 nM"],
  ["Nc1ncc(NC(=O)C(=O)N(Cc2ccccc2)Cn2cccn2)c2[nH]ncc12", "< 5 nM"],
  ["CC[C@H](C)CN(Cc1ccccn1)C(=O)C(=O)Nc1cnc(N)c2cn[nH]c12", "< 5 nM"]
]}

Q: Return IC50 (reported value) for this molecule: "Cc1cc(C(F)(F)F)ccc1CN(C)C(=O)C(=O)Nc1cnc(N)c2cn[nH]c12"
A: < 5 nM

Q: Return IC50 (reported value) for this molecule: "Cc1ccccc1CN(CC(C)C)C(=O)C(=O)Nc1cnc(N)c2cn[nH]c12"
A: < 5 nM

Q: Return IC50 (reported value) for this molecule: "C[C@@H](c1ccc(C(F)(F)F)cc1)N(C)C(=O)C(=O)Nc1cnc(N)c2c1cnn2C"
A: 5 to 50 nM

====

- System: HAP1 MTAP-deleted cell line
- method-description: Viability assay, HAP1 MTAP-deleted cell line
- Format: cell-based
- test-settings: Homo sapiens; viability assay, HAP1 MTAP-deleted cell line; read-out: Hap1 MTAP deleted viability IC50
pIC50: −log10 of the molar value.
pIC50 values for the compounds below.

In the examples that follow, each entry is paired with its recorded pIC50.
{"columns": ["compound", "pIC50"],
 "data": [
  ["CC(c1ccccn1)N(Cc1ccccc1)C(=O)C(=O)Nc1cnc(N)c2cn[nH]c12 (stereo not shown)", "> 7.00"],
  ["Cc1cc(C(F)(F)F)ccc1CN(C)C(=O)C(=O)Nc1cnc(N)c2cn[nH]c12", "> 7.00"],
  ["C[C@@H](c1ccc(C(F)(F)F)cc1F)N(C)C(=O)C(=O)Nc1cnc(N)c2c1cnn2C", "6.00 to 7.00"],
  ["Nc1ncc(NC(=O)C(=O)N(Cc2ccccn2)Cc2cccc3ccccc23)c2[nH]ncc12", "> 7.00"],
  ["COC[C@@H](C1CC1)N(Cc1ccc(C(F)(F)F)cn1)C(=O)C(=O)Nc1cnc(N)c(C)c1", "> 7.00"],
  ["Cc1cc(F)ccc1CN(CC(C)C)C(=O)C(=O)Nc1cnc(N)c2cn[nH]c12", "> 7.00"],
  ["Nc1ncc(NC(=O)C(=O)N(Cc2ccccc2)Cc2cccnc2)c2[nH]ncc12", "> 7.00"],
  ["Nc1ncc(NC(=O)C(=O)N(Cc2ccccc2)Cc2ncc(F)cc2Cl)c2[nH]ncc12", "> 7.00"],
  ["Cc1cc(F)ccc1CN(Cc1ccccc1)C(=O)C(=O)Nc1cnc(N)c2cn[nH]c12", "> 7.00"],
  ["C[C@H](c1ccc(C(F)(F)F)cc1F)N(C)C(=O)C(=O)Nc1cnc(N)c2c1cnn2C", "> 7.00"]
]}

Q: Return pIC50 (reported value) for this compound: "CCN(Cc1ccc(S(F)(F)(F)(F)F)cc1C)C(=O)C(=O)Nc1cnc(N)c2cn[nH]c12"
A: > 7.00

Q: Return pIC50 (reported value) for this compound: "Nc1ncc(NC(=O)C(=O)N(Cc2ccccc2)Cc2ccccc2C(F)(F)F)c2[nH]ncc12"
A: > 7.00
